- Test system: LnCaP
- Method description: Anti-proliferative activity, LnCaP
- Assay type: cell-based
- Test parameters: Homo sapiens, LNCaP, read-out: Anti-Proliferative activity IC50
- Procedure: FIG. 8 is a graph depicting the mRNA levels of α-1 and α-3 isoforms quantitated by real time RT-PCR (TaqMan) using fluorescent labeled TaqMan probes. Anti-proliferation (IC50 values) activity of BNC4 on indicated cell lines was determined by MTS assay. Total alpha levels (al+a3) were plotted against (1/IC50) X100 values.
Parameter: IC50
Enter the number, and then the unit.

1) C[C@]12CC/C(=N\OCCN3CCCCC3)C=C1CC[C@@H]1[C@@H]2CC[C@]2(C)[C@@H](c3ccc(=O)oc3)CC[C@]12O; 39.2 nM

Could you now look at the following compound, please?
Look up IC50 of C[C@@H]1O[C@@H](O[C@@H]2C=C3CC[C@@H]4[C@H](CC[C@]5(C)[C@@H](c6ccc(=O)oc6)CC[C@]45O)[C@@]3(C)CC2)[C@H](O)[C@H](O)[C@H]1N and report it. 13.8 nM

====

- Method description: Pharmacokinetics following IP administration in mice
- Type: in vivo
- Test parameters: mouse, plasma, ip, 5 mg/kg, i.p., 5 mg/kg, read-out: tmax
Measured Tmax, listed per entry.
The answer is to be given in min; state only the numeric part.

Examples with their reported Tmax follow.
1) C[C@@H]1O[C@@H](O[C@@H]2C=C3CC[C@@H]4[C@H](CC[C@]5(C)[C@@H](c6ccc(=O)oc6)CC[C@]45O)[C@@]3(C)CC2)[C@H](O)[C@H](O)[C@H]1O [BNC4, proscillaridin, reference compound]; 15
2) C[C@@H]1O[C@@H](O[C@@H]2C=C3CC[C@@H]4[C@H](CC[C@]5(C)[C@@H](c6ccc(=O)oc6)CC[C@]45O)[C@@]3(C)CC2)[C@H](O)[C@H](O)[C@H]1N; 30

Could you now look at the following compound, please?
Look up Tmax of C[C@]12CC/C(=N\OCCN3CCCCC3)C=C1CC[C@@H]1[C@@H]2CC[C@]2(C)[C@@H](c3ccc(=O)oc3)CC[C@]12O and report it. 4.98

====

UniProt P50997 measurements of pIC50, listed per entry.
// field semantics: pIC50 = negative decimal log of concentration (mol/L)

Examples with their reported pIC50 follow.
1) C[C@]12CC[C@H](OC(=O)C3CCNC3)C=C1CCC1C2CC[C@]2(C)[C@@H](c3ccc(=O)oc3)CC[C@]12O (stereo partly drawn); 6.52
2) CCNC(=O)O[C@@H]1C=C2CCC3C(CC[C@]4(C)[C@@H](c5ccc(=O)oc5)CC[C@]34O)[C@@]2(C)CC1 (stereo partly drawn); 6.66

Could you now look at the following compound, please?
Fill in: pIC50 on UniProt P50997, entry CC(=O)N1CCC(C(=O)O[C@@H]2C=C3CCC4C(CC[C@]5(C)[C@@H](c6ccc(=O)oc6)CC[C@]45O)[C@@]3(C)CC2)CC1 (stereo partly drawn) 6.57

====

- Method description: Pharmacokinetics following IP administration in mice
- Assay type: in vivo
- Test parameters: mouse, plasma, ip, 5 mg/kg
Measured AUC, listed per entry.
The answer is to be given in ng·h/mL; state only the numeric part.

Examples with their reported AUC follow.
1. C[C@]12CC/C(=N\OCCN3CCCCC3)C=C1CC[C@@H]1[C@@H]2CC[C@]2(C)[C@@H](c3ccc(=O)oc3)CC[C@]12O; 2350
2. C[C@@H]1O[C@@H](O[C@@H]2C=C3CC[C@@H]4[C@H](CC[C@]5(C)[C@@H](c6ccc(=O)oc6)CC[C@]45O)[C@@]3(C)CC2)[C@H](O)[C@H](O)[C@H]1O [BNC4, proscillaridin, reference compound]; 4570

Look up AUC of C[C@@H]1O[C@@H](O[C@@H]2C=C3CC[C@@H]4[C@H](CC[C@]5(C)[C@@H](c6ccc(=O)oc6)CC[C@]45O)[C@@]3(C)CC2)[C@H](O)[C@H](O)[C@H]1N and report it. 4630

====

- Test system: Caki-1 (CAKI)
- Method description: cells
- Format: cell-based
- Test parameters: Homo sapiens, CAKI-1, read-out: Anti-Proliferative activity IC50
Measured IC50, listed per entry.
The answer is to be given in nM; state only the numeric part.

1) C[C@]12CC/C(=N\OCCN3CCCCC3)C=C1CC[C@@H]1[C@@H]2CC[C@]2(C)[C@@H](c3ccc(=O)oc3)CC[C@]12O; 13

Could you now look at the following molecule, please?
Look up IC50 of C[C@@H]1O[C@@H](O[C@@H]2C=C3CC[C@@H]4[C@H](CC[C@]5(C)[C@@H](c6ccc(=O)oc6)CC[C@]45O)[C@@]3(C)CC2)[C@H](O)[C@H](O)[C@H]1N and report it. 8

====

- Method description: Pharmacokinetics following IP administration in mice
- Assay type: in vivo
- Test parameters: mouse, plasma, ip, 2.5 mg/kg
Parameter: AUC (ng·h/mL)
The answer is to be given in ng·h/mL; state only the numeric part.

Look up AUC of C[C@]12CC/C(=N\OCCN3CCCCC3)C=C1CC[C@@H]1[C@@H]2CC[C@]2(C)[C@@H](c3ccc(=O)oc3)CC[C@]12O and report it. 1020

====

Measured IC50, listed per entry.
- Test system: Caki-1 (CAKI)
- Method description: cells
- Assay type: cell-based
- Test parameters: Homo sapiens, CAKI-1, read-out: APA (Caki-1) IC50
The answer is to be given in µM; state only the numeric part.

Examples with their reported IC50 follow.
1. CN(C)/N=C1/C=C2CCC3C(CC[C@]4(C)[C@@H](c5ccc(=O)oc5)CC[C@]34O)[C@@]2(C)CC1 (some centres unmarked); 0.118
2. CCNC(=O)O[C@@H]1C=C2CCC3C(CC[C@]4(C)[C@@H](c5ccc(=O)oc5)CC[C@]34O)[C@@]2(C)CC1 (some centres unmarked); 0.082
3. CC12CCC(OC(=O)C3CCNCC3)C=C1CCC1C2CCC2(C)C(c3ccc(=O)oc3)CCC12O (centres unmarked); 0.12
4. CC12CCC(OC(=O)c3ccc(C#N)cc3)C=C1CCC1C2CCC2(C)C(c3ccc(=O)oc3)CCC12O (centres unmarked); 0.084

Could you now look at the following molecule, please?
Fill in: IC50 on Caki-1 (CAKI), entry CN(C)CCN=C1CC[C@@]2(C)C(CCC3C2CC[C@]2(C)[C@@H](c4ccc(=O)oc4)CC[C@]32O)C1 (some centres unmarked) 0.109

Origin of values: patent US20090023666A1
